Answer each item with its documented Growth percent.
System: SK-MEL-2
Assay type: cell-based
Settings: SK-Mel-2; 10^−5 molar
Answers are plain numbers, in %.

Study these solved cases before continuing.
Compound Smiles | Growth percent, %
O=c1c2cc(Cl)ccc2sc2c(NCCN3CCOCC3)nc3ccccc3c12 | 94.52
CN(C)CCCNc1nc2ccccc2c2c(=O)c3cc(Cl)ccc3sc12 | 106.47
O=c1c2cc(Cl)ccc2sc2c(NCCc3ccccc3)nc3ccccc3c12 | 106.33
O=c1c2cc(Cl)ccc2sc2c(NCc3ccc4c(c3)OCO4)nc3ccccc3c12 | 95.57
O=c1c2cc(Cl)ccc2sc2c(NCCCNCCO)nc3ccccc3c12 | 53.64

Kindly consider the entry below.
Problem: Form: Entry = COc1ccc(CCNc2nc3ccccc3c3c(=O)c4cc(Cl)ccc4sc23)cc1 | System = SK-MEL-2 | Growth percent = ____
Solution: 113.12

====

System: SK-OV-3
Format: cell-based
Settings: SK-OV-3; 10^−5 molar
Measurement Name: Growth percent (%)
One number for each entry, in %.

Compound | Scale Unit | Numeric Readout
O=c1c2cc(Cl)ccc2sc2c(NCCCNCCO)nc3ccccc3c12 [Compound N19] | % | 76.48

Dear colleague, could you send me Growth percent for each of the items below? Thanks.
1. O=c1c2cc(Cl)ccc2sc2c(NCc3ccccc3)nc3ccccc3c12 [Compound N25]
2. O=c1c2cc(Cl)ccc2sc2c(NCCc3ccccc3)nc3ccccc3c12 [Compound N30]

Solution:
[36.71, 102.16]

====

Please respond with reported CC50 for every item in the list.
System: DU-145
Type: cell-based
Settings: Homo sapiens; DU-145; five dose; read-out: LC50 (the source's name)
Numbers only, in µM.

Compound Smiles | Target Of Assay | Numeric Readout
CN(C)CCNc1nc2ccccc2c2c(=O)c3cc(Cl)ccc3sc12 | DU-145 | 5.99
O=c1c2cc(Cl)ccc2sc2c(NCCCNCCO)nc3ccccc3c12 | DU-145 | 6.25

# ---- query compound ----
Problem: Param readout= CC50; system= DU-145; entry= NCCNc1nc2ccccc2c2c(=O)c3cc(Cl)ccc3sc12 ; returns value.
Solution: 5.66

====

Tested on: T-47D
Assay type: cell-based
Settings: Breast cancer; 10^−5 molar; 48 hours; SRB
Measurement Name: Growth percent T-47D (%)
One number for each entry, in %.

As a guide, the following entries are already answered.
Molecule | Measurement Name | Numeric Readout
CC(C)CC(C)Nc1nc2ccccc2c2c(=O)c3cc(Cl)ccc3sc12 (centres unmarked) [Compound N13] | Growth percent T-47D | 73.76
CCNc1nc2ccccc2c2c(=O)c3cc(Cl)ccc3sc12 [Compound N2] | Growth percent T-47D | 38.28
O=c1c2cc(Cl)ccc2sc2c(NCCO)nc3ccccc3c12 [Compound N9] | Growth percent T-47D | 74.45
CCC(CC)Nc1nc2ccccc2c2c(=O)c3cc(Cl)ccc3sc12 [Compound N6] | Growth percent T-47D | 73.62

Problem: For the molecule O=c1c2ccc(Cl)cc2sc2c(Cl)nc3ccccc3c12 [Compound 3] , what Growth percent T-47D is on record?
Solution: 110.10

====

Tested on: MDA-MB-435
Format: cell-based
Settings: MDA-MB-435; five dose
Measurement Name: TGI (µM)
Numbers only, in µM.

Worked cases, TGI given:
Compound | TGI / µM
O=c1c2cc(Cl)ccc2sc2c(NCCCNCCO)nc3ccccc3c12 [Compound N19] | 2.99
NCCNc1nc2ccccc2c2c(=O)c3cc(Cl)ccc3sc12 [Compound N14] | 3.59

Now look at this one.
Problem: So what does the record say about TGI for CN(C)CCNc1nc2ccccc2c2c(=O)c3cc(Cl)ccc3sc12 [Compound N7] ?
Solution: 3.22

====

Exercise: state measured Growth percent for each of the compounds provided.
Tested on: SK-MEL-28
Type: cell-based
Settings: SK-MEL-28; 10^−5 molar
Give bare numbers, in %.

These recorded examples may help you get a feel for the data.
Compound Smiles | Scale Unit | Growth percent
O=c1c2cc(Cl)ccc2sc2c(NCc3ccc4c(c3)OCO4)nc3ccccc3c12 | % | 88.24
O=c1c2cc(Cl)ccc2sc2c(NCc3ccccc3)nc3ccccc3c12 | % | 84.20
O=c1c2cc(Cl)ccc2sc2c(NCCN3CCOCC3)nc3ccccc3c12 | % | 98.56
CN(C)CCCNc1nc2ccccc2c2c(=O)c3cc(Cl)ccc3sc12 | % | 99.63

Consider now this further compound.
Problem: Item O=c1c2cc(Cl)ccc2sc2c(NCCCNCCO)nc3ccccc3c12 has what recorded Growth percent?
Solution: −94.33

====

Tested on: SK-OV-3
Format: cell-based
Settings: SK-OV-3; five dose
Measurement Name: TGI (µM)
Give bare numbers, in µM.

Compound Smiles | Numeric Readout
CCNc1nc2ccccc2c2c(=O)c3cc(Cl)ccc3sc12 | 35.20
NCCNc1nc2ccccc2c2c(=O)c3cc(Cl)ccc3sc12 | 3.38
CN(C)CCNc1nc2ccccc2c2c(=O)c3cc(Cl)ccc3sc12 | 3.06
O=c1c2cc(Cl)ccc2sc2c(NCCCNCCO)nc3ccccc3c12 | 3.38

Problem: Endpoint output: TGI of O=c1c2cc(Cl)ccc2sc2c(NCc3ccccc3)nc3ccccc3c12 . Value?
Solution: 13.90

====

System: CCRF-CEM
Format: cell-based
Settings: CCRF-CEM; 10^−5 molar
Please respond with reported Growth percent for every item in the list.
Numbers only, in %.

These solved cases illustrate the format of a correct answer.
Compound | Numeric Readout
O=c1c2cc(Cl)ccc2sc2c(NCc3ccc4c(c3)OCO4)nc3ccccc3c12 [Compound N27] | 88.86
O=c1c2cc(Cl)ccc2sc2c(NC3CCCCC3)nc3ccccc3c12 [Compound N21] | 92.23
O=c1c2cc(Cl)ccc2sc2c(NCc3ccccc3)nc3ccccc3c12 [Compound N25] | 102.34
COc1ccc(CCNc2nc3ccccc3c3c(=O)c4cc(Cl)ccc4sc23)cc1 [Compound N31] | 100.93
O=c1c2cc(Cl)ccc2sc2c(NCCCNCCO)nc3ccccc3c12 [Compound N19] | −54.78
O=c1c2cc(Cl)ccc2sc2c(NCCc3ccccc3)nc3ccccc3c12 [Compound N30] | 114.29

Count: 2. Required value per item: Growth percent.
1. CN(C)CCCNc1nc2ccccc2c2c(=O)c3cc(Cl)ccc3sc12 [Compound N17]
2. O=c1c2cc(Cl)ccc2sc2c(NCCN3CCOCC3)nc3ccccc3c12 [Compound N16]

Solution:
1. 69.06
2. 82.21

====

Give measured TGI for each item. Keep answers brief.
Test system: NCI-H460
Type: cell-based
Settings: NCI-H460; five dose

Consider the worked cases shown below.
Compound | TGI
NCCNc1nc2ccccc2c2c(=O)c3cc(Cl)ccc3sc12 [Compound N14] | 3.45 µM
O=c1c2cc(Cl)ccc2sc2c(NCCCNCCO)nc3ccccc3c12 [Compound N19] | 3.35 µM
CCNc1nc2ccccc2c2c(=O)c3cc(Cl)ccc3sc12 [Compound N2] | >100 µM
O=c1c2cc(Cl)ccc2sc2c(NCc3ccccc3)nc3ccccc3c12 [Compound N25] | >100 µM

API: the following record is the query input.
Problem: Request: TGI, test system NCI-H460, entry CN(C)CCNc1nc2ccccc2c2c(=O)c3cc(Cl)ccc3sc12 [Compound N7]
Solution: 3.38 µM

====

System: LOX IMVI
Assay type: cell-based
Settings: LOX IMVI; five dose
I'd appreciate it if you could supply TGI values for the items below.
Give bare numbers, in µM.

Consider the worked cases shown below.
Molecule | Scale Unit | TGI
NCCNc1nc2ccccc2c2c(=O)c3cc(Cl)ccc3sc12 [Compound N14] | µM | 3.16
CN(C)CCNc1nc2ccccc2c2c(=O)c3cc(Cl)ccc3sc12 [Compound N7] | µM | 3.24

Now consider the entry below.
Problem: Fill in: TGI of O=c1c2cc(Cl)ccc2sc2c(NCCCNCCO)nc3ccccc3c12 [Compound N19] is ___
Solution: 3.80

====

Give GI50 for every item shown.
Test system: PC-3
Answers are plain numbers, in µM.

Compound | Measurement Name | Scale Unit | Numeric Readout
CN(C)CCNc1nc2ccccc2c2c(=O)c3cc(Cl)ccc3sc12 [Compound N7] | GI50 | µM | 1.47
NCCNc1nc2ccccc2c2c(=O)c3cc(Cl)ccc3sc12 [Compound N14] | GI50 | µM | 1.55
O=c1c2cc(Cl)ccc2sc2c(NCCCNCCO)nc3ccccc3c12 [Compound N19] | GI50 | µM | 1.51

Problem: Which measured GI50 value corresponds to O=c1c2cc(Cl)ccc2sc2c(NCc3ccccc3)nc3ccccc3c12 [Compound N25] ?
Solution: 56.9

====

System: SK-MEL-2
Format: cell-based
Settings: Homo sapiens; SK-Mel-2; five dose
For each record, write down the corresponding LC50.
Answers are plain numbers, in µM.

Compound | Scale Unit | LC50
O=c1c2cc(Cl)ccc2sc2c(NCc3ccccc3)nc3ccccc3c12 [Compound N25] | µM | 96.5
CN(C)CCNc1nc2ccccc2c2c(=O)c3cc(Cl)ccc3sc12 [Compound N7] | µM | 6.12

Now turn to the next compound.
Problem: Give its LC50 value. Item: NCCNc1nc2ccccc2c2c(=O)c3cc(Cl)ccc3sc12 [Compound N14]
Solution: 7.87
